Molecular target: T1, human 5T4-His protein (human, UniProt Q13641 32-355)
T1 construct: also called recombinant 5T4 protein (human 5T4-his tag); human 5T4 protein; not shown: His tag
T1 sequence (looked up): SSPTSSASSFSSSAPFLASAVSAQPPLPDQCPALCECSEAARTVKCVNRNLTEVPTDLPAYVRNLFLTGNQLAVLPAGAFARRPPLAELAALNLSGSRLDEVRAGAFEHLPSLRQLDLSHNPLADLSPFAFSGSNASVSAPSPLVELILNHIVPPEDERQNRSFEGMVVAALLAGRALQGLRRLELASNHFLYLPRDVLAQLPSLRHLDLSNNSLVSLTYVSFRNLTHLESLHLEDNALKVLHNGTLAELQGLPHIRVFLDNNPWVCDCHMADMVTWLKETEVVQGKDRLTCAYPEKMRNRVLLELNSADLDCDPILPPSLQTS
Test: SPR Biacore, Protein A capture
measuredProperty: Kd (nM)
Write the answer as a number in nM, unit excluded.

Prompt: May I ask what Kd has been recorded for Hu286B4-13 (antibody, V domains shown, humanized) VH: EVQLQESGPGLVKPSDTLSLTCAVSGYSISNNYYWNWIRQPPGKGLEWMGYITYDGSNNYNPSLKNRITVSRDTSKNQFSLKLSSVTAVDTAVYYCARGGGQLRFDYWGQGTTVTVSS VL: DIQMTQSPSSLSASVGDRVTITCKASQSVSNEVTWYQQKPGKAPKMLIYYASNRYTGVPDRFSGSGYGTDFTFTISSLQPEDIATYYCQQDYSSPWTFGGGTKVEIK ?
Completion: 1.12

Prompt: May I ask what Kd has been recorded for Hu286B4-5 (antibody, V domains shown, humanized) VH: EVQLQESGPGLVKPSDTLSLTCAVSGYSISNNYYWNWIRQPPGKGLEWIGYITYDGSNNYNPSLKNRVTMSRDTSKNQFSLKLSSVTAVDTAVYYCARGGGQLRFDYWGQGTTVTVSS VL: SIVMTQSPSSLSASVGDRVTITCKASQSVSNEVTWYQQKPGKSPKMLIYYASNRYTGVPDRFSGSGYGTDFTFTISSLQPEDIATYFCQQDYSSPWTFGGGTKVEIK ?
Completion: 1.2

Consider the record given below.
Prompt: May I ask what Kd has been recorded for Hu286B4-3 (antibody, V domains shown, humanized) VH: EVQLQESGPGLVKPSDTLSLTCAVSGYSISNNYYWNWIRQPPGKGLEWIGYITYDGSNNYNPSLKNRVTMSRDTSKNQFSLKLSSVTAVDTAVYYCARGGGQLRFDYWGQGTTVTVSS VL: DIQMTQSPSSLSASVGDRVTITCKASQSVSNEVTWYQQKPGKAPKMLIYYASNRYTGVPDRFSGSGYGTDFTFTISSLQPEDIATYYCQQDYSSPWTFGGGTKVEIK ?
Completion: 1.14
